# Tested on: P12-Ichikawa
# Assay notes: AUC of viability dose-response curve (% viability x log10 dose units); higher = less sensitive
# Conditions used: HPLM + 10% dialyzed FBS; 48 h
Readout kind: AUC of viability dose-response curve
Provide a numeric answer; units are not to be included.

- Compound: "C[C@@H]1CC[C@@]2(OC1)OC1CC3C4CC=C5CC(O)CCC5(C)C4CCC3(C)C1[C@@H]2C (stereo partly specified)"
  AUC of viability dose-response curve: 419

I'm curious: which AUC of viability dose-response curve was measured for N#CC(=C(/N)Sc1ccccc1N)/C(C#N)=C(\N)Sc1ccccc1N tested on P12-Ichikawa?
474

I'm curious: which AUC of viability dose-response curve was measured for CC[C@@]1(O)C[C@H](O[C@H]2C[C@H](N(C)C)[C@H](O[C@H]3C[C@H](O)[C@H](O[C@H]4CCC(=O)[C@H](C)O4)[C@H](C)O3)[C@H](C)O2)c2c(cc3c(c2O)C(=O)c2c(O)cccc2C3=O)[C@H]1C(=O)OC tested on P12-Ichikawa?
463

I'm curious: which AUC of viability dose-response curve was measured for Cc1cn(CCN2CCN(c3ccccc3-c3cc(C#N)cc(C(=O)NCCCN4CCCC4)c3)CC2)c2ccccc12 tested on P12-Ichikawa?
402

I'm curious: which AUC of viability dose-response curve was measured for CC1=C(CC/C(C)=C/CCC2=CCC(C3=CC(=O)OC3O)OC2O)C(C)(C)CCC1 (stereo unspecified) tested on P12-Ichikawa?
457

I'm curious: which AUC of viability dose-response curve was measured for CCN(CC)CCN1C(=O)\C(=N/C2=CC=CC=C12)CC3=CC=C(OC)C=C3 tested on P12-Ichikawa?
470

I'm curious: which AUC of viability dose-response curve was measured for CCOC(=O)[C@H](CCc1ccccc1)N[C@@H](C)C(=O)N1[C@H](C(=O)O)C[C@@H]2CCC[C@@H]21 tested on P12-Ichikawa?
451

I'm curious: which AUC of viability dose-response curve was measured for CC(=O)Nc1sc2c(c1-c1nc3ccccc3s1)CNC2 tested on P12-Ichikawa?
463

----------
AUC of viability dose-response curve listing for selected molecules.
# Test system: NOMO1
# Assay notes: AUC of viability dose-response curve (% viability x log10 dose units); higher = less sensitive
# Conditions used: HPLM + 10% dialyzed FBS; 48 h

- Molecule: "Oc1cc(O)cc(/C=C/c2ccc(O)c(O)c2)c1"
  Target or test system: "NOMO1"
  AUC of viability dose-response curve: 442
- Molecule: "OC(COC1=C2C(=O)\\C=C(/OC2=CC=C1)C([O-])=O)COC3=C4C(=O)\\C=C(/OC4=CC=C3)C([O-])=O"
  Target or test system: "NOMO1"
  AUC of viability dose-response curve: 435
- Molecule: "CO[C@H]1C[C@@H]2CC[C@@H](C)[C@@](O)(O2)C(=O)C(=O)N2CCCC[C@H]2C(=O)O[C@H]([C@H](C)C[C@@H]2CC[C@@H](OCCO)[C@H](OC)C2)CC(=O)[C@H](C)/C=C(/C)[C@@H](O)[C@@H](OC)C(=O)[C@H](C)C[C@H](C)\\C=C/C=C\\C=C/1C"
  Target or test system: "NOMO1"
  AUC of viability dose-response curve: 393
- Molecule: "O=C1CC[C@@]2(O)[C@H]3Cc4ccc(O)c5c4[C@@]2(CCN3CC2CC2)[C@H]1O5"
  Target or test system: "NOMO1"
  AUC of viability dose-response curve: 419
- Molecule: "CCCCC[C@H](O)/C=C/[C@H]1[C@H](O)CC(=O)[C@@H]1C/C=C\\CCCC(=O)O"
  Target or test system: "NOMO1"
  AUC of viability dose-response curve: 449
- Molecule: "CC(C)C[C@H](NC(=O)[C@H](Cc1ccccc1)NC(=O)c1cnccn1)B(O)O"
  Target or test system: "NOMO1"
  AUC of viability dose-response curve: 182
- Molecule: "CCCCCCCCc1ccc(CCC(N)(CO)CO)cc1"
  Target or test system: "NOMO1"
  AUC of viability dose-response curve: 353
- Molecule: "CC(NCc1ccc2c(c1)[nH]/c(=N\\C(=O)c1ccc(-c3cn[nH]c3)s1)n2CC(C)(C)O)C(C)(C)C (stereo not given)"
  Target or test system: "NOMO1"
  AUC of viability dose-response curve: 321

Return reported AUC of viability dose-response curve; argument: COc1cccc2c1C(=O)c1c(O)c3c(c(O)c1C2=O)C[C@@](O)(C(C)=O)C[C@@H]3O[C@H]1C[C@H](N)[C@H](O)[C@H](C)O1
265

Return reported AUC of viability dose-response curve; argument: O=C(NNC(=O)c1ccc(CN[S+](=O)([O-])c2ccc(F)c(Cl)c2)cc1)c1ccccc1
468

----------
# Tested on: NOMO1
# Assay notes: cell viability relative to DMSO control; higher = less cytotoxic
# Conditions used: HPLM + 10% dialyzed FBS; 48 h; 0.19 µM
Readout kind: cell viability (%)
Report the figure in % without appending any unit label.

Look over these answered cases.
- Molecule: "COc1ccc2c(c1OC)CN1CCc3cc4c(cc3C1C2)OCO4 (centres undefined)"
  cell viability, %: 82.5
- Molecule: "OC(COC1=C2C(=O)\\C=C(/OC2=CC=C1)C([O-])=O)COC3=C4C(=O)\\C=C(/OC4=CC=C3)C([O-])=O"
  cell viability, %: 80.8
- Molecule: "CCCCCCCCc1ccc(CCC(N)(CO)CO)cc1"
  cell viability, %: 102

Return reported cell viability; argument: OC1=CC=C(C=C1)\C2=C\C(=O)C3=C(O2)C=C(O)C=C3O
126

Return reported cell viability; argument: CC(C)C[C@H](NC(=O)[C@H](Cc1ccccc1)NC(=O)c1cnccn1)B(O)O
3.62

Return reported cell viability; argument: CN[S+](=O)([O-])CCc1ccc2[nH]cc(C3CCN(C)CC3)c2c1
107

Return reported cell viability; argument: Cc1ccc(-c2ncn(-c3ccc(Nc4nccc(-c5cccc(N6CCOCC6)c5)n4)cc3)n2)cn1
87.8

Return reported cell viability; argument: Cc1c(C(=O)Nc2cccc(C(F)(F)F)c2)cc(-c2ccccc2)n1CCCN1CCOCC1
113

Return reported cell viability; argument: CN(C)CCCNC(=O)c1ccc(-c2cc(O)c3ncccc3c2)cc1
85.9

----------
# Test system: SEM cells
# Assay notes: cell viability relative to DMSO control; higher = less cytotoxic
# Conditions used: RPMI 5 mM glucose + 10% FBS; 48 h; 0.00702 µM
cell viability listing for selected compounds.
Report the figure in % without appending any unit label.

- Compound: "O=C1CCc2ccc(OCCCCN3CCN(c4cccc(Cl)c4Cl)CC3)cc2N1"
  cell viability / %: 105
- Compound: "OC(COC1=C2C(=O)\\C=C(/OC2=CC=C1)C([O-])=O)COC3=C4C(=O)\\C=C(/OC4=CC=C3)C([O-])=O"
  cell viability / %: 85.6
- Compound: "COc1cc2ncnc(Nc3cccc(Br)c3)c2cc1OC"
  cell viability / %: 102
- Compound: "O=c1[nH]cnc2c1ncn2[C@H]1CC[C@@H](CO)O1"
  cell viability / %: 98
- Compound: "O=[N+]([O-])c1cnc(Sc2nnc(O)n2-c2ccc3c(c2)OCCO3)s1"
  cell viability / %: 87.6
- Compound: "Cc1c(C(=O)Nc2cccc(C(F)(F)F)c2)cc(-c2ccccc2)n1CCCN1CCOCC1"
  cell viability / %: 119
- Compound: "COc1cc(-c2nn(C3CCC(N4CCN(C(C)=O)CC4)CC3)c3ncnc(N)c23)ccc1NC(=O)c1cc2ccccc2n1C (configuration not stated)"
  cell viability / %: 115
- Compound: "CC(=O)O[C@@]12CO[C@@H]1C[C@H](O)[C@]3(C)[C@@H]2[C@H](OC(=O)C4=CC=CC=C4)[C@]5(O)C[C@H](OC(=O)C(O)[C@@H](NC(=O)OC(C)(C)C)C6=CC=CC=C6)C(=C(/[C@@H](O)C3=O)C5(C)C)/C (some centres not stated)"
  cell viability / %: 21.2
- Compound: "OCCCNc1cc(-c2ccnc(Nc3cccc(Cl)c3)n2)ccn1"
  cell viability / %: 125
- Compound: "CC1(C)CC(O)CC(C)(C)N1[O]"
  cell viability / %: 96.3

I'm curious: which cell viability was measured for CN[C@@H]1C[C@H]2O[C@@](C)([C@@H]1OC)n1c3ccccc3c3c4c(c5c6ccccc6n2c5c31)C(=O)N[C@H]4O tested on SEM cells?
83.8

I'm curious: which cell viability was measured for CN(C)CC/C=C1/c2ccccc2COc2ccc(CC(=O)O)cc21 tested on SEM cells?
124

I'm curious: which cell viability was measured for CC(=O)[C@H]1CC[C@H]2[C@@H]3CCC4=CC(=O)CC[C@]4(C)[C@H]3CC[C@]12C tested on SEM cells?
102

I'm curious: which cell viability was measured for C#C[C@]1(O)CC[C@H]2[C@@H]3CCc4cc(OC)ccc4[C@H]3CC[C@@]21C tested on SEM cells?
120

I'm curious: which cell viability was measured for CNCC(O)C(O)C(O)C(O)CO.O=C(O)c1ccc(-c2cc3cccnc3c(-c3ccc4nonc4c3)n2)cc1 tested on SEM cells?
109

I'm curious: which cell viability was measured for CO[C@@H]1C(N(C)C(=O)c2ccccc2)C[C@H]2O[C@]1(C)n1c3ccccc3c3c4c(c5c6ccccc6n2c5c31)C(=O)NC4=O (some centres not stated) tested on SEM cells?
92.1

I'm curious: which cell viability was measured for Oc1cc(O)cc(/C=C/c2ccc(O)c(O)c2)c1 tested on SEM cells?
95
